Target: biotinylated CD59 (Homo sapiens, UniProt P13987)
Construct: Recombinant soluble human CD59 with an additional C-terminal cysteine residue
Sequence (P13987 26-102 limits assumed): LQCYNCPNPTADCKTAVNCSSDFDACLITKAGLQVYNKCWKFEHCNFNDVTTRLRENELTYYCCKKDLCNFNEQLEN
Experiment: mRNA-display cyclic peptide screen against CD59-biotin, NGS abundance after 6th selection round
Conditions: raw NGS counts of peptide sequence, sequencing sample Seq I, sheet R6 (6th selection round)
Description: To discover novel non‐protein CD59 ligands, we screened a library of 10^12 cyclic peptides against CD59 using mRNA‐display (Figure 2a).^[ [23], [24], [25], [26], [27], [28], [29] ^] Briefly, an mRNA library was designed in which the start codon was reprogrammed from Met to N‐chloroacetyl‐D‐Tyr (ClAc‐D‐Tyr), followed by 10–12 randomly encoded natural amino acids, a Cys residue, a (GlySer)3 linker, and a stop codon. […]
Classes based on Counts Seq I: bottom = under 100, middle = from 100 up to 300, top = 300 and over

SWTWGNRSSVRG: top
SRGGKDWSRG: top
CYGGRAFIYAWS: middle
CFARRVNNSSL: middle
YIIGSSDYTRG: middle

Challenge: Class (by measured Counts Seq I) for HAFGSRDITYY
Response given: top

Challenge: Class (by measured Counts Seq I) for VASGGRYWSRA
Response given: top

Challenge: Class (by measured Counts Seq I) for LRGSYDYQLYFG
Response given: bottom

Challenge: Class (by measured Counts Seq I) for WATGSATFSSG
Response given: top

Challenge: Class (by measured Counts Seq I) for CFSHRSNSDGI
Response given: top

Challenge: Class (by measured Counts Seq I) for STWGNRNETRG
Response given: middle

Challenge: Class (by measured Counts Seq I) for CAWGNRYIAYY
Response given: top

Challenge: Class (by measured Counts Seq I) for WVYGSSTFRYQ
Response given: middle

Challenge: Class (by measured Counts Seq I) for IATGSKLYAKG
Response given: middle

Challenge: Class (by measured Counts Seq I) for YLSGSSNFTRG
Response given: middle

Challenge: Class (by measured Counts Seq I) for SVTGNRDHTRG
Response given: bottom

Challenge: Class (by measured Counts Seq I) for LCYVKGSKDFT
Response given: middle

Challenge: Class (by measured Counts Seq I) for FQRGTRSTSWG
Response given: middle

Challenge: Class (by measured Counts Seq I) for VWGNRWTRIYW
Response given: middle

Challenge: Class (by measured Counts Seq I) for IAFGSRFHSYQ
Response given: top

Challenge: Class (by measured Counts Seq I) for YCWVRGSRNYT
Response given: middle

Challenge: Class (by measured Counts Seq I) for FVRGDLYSVRG
Response given: bottom

Source: paper PMC12207370
